Target: Bromodomain-containing protein 3 (Homo sapiens, UniProt Q15059, Y348A)
Sequence (Q15059 2-726 Y348A limits assumed): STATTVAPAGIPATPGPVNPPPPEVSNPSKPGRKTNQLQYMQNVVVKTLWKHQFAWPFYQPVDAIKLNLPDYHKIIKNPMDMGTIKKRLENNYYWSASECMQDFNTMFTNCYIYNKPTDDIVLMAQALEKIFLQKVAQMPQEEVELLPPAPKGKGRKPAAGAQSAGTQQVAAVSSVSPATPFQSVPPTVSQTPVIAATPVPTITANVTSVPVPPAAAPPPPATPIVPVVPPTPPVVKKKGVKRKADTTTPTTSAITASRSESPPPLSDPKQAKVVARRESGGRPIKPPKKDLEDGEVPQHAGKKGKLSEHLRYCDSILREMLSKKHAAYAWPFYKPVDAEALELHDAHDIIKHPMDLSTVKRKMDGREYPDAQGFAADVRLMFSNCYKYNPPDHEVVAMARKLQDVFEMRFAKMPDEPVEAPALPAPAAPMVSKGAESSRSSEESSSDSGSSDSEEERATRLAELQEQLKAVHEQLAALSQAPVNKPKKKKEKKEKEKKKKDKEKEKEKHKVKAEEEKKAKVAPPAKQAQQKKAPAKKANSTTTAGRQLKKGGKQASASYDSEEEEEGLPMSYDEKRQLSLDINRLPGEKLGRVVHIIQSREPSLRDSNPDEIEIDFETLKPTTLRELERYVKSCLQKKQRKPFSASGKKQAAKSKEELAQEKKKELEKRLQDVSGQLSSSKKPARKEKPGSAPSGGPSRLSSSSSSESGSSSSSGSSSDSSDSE
Test: Displacement of Alexa Fluor 647 labelled ligand from His6-tagged BRD3 BD1(1 to 435 residues)/BD2 Y348A mutant (unknown origin) after 30 mins by TR-FRET assay
Outcome measure: IC50

(Q) Which value of IC50 has been reported for CC1(C2CC2)NC(=O)N(CC(=O)Nc2ccc(Br)c(S(=O)(=O)N3CCCCC3)c2)C1=O (racemic) in the records?
(A) > 50.1 µM

----------
Target: Bromodomain-containing protein 2 (Homo sapiens, UniProt P25440, Y113A)
Sequence (P25440 whole entry Y113A, the tested form may be a part): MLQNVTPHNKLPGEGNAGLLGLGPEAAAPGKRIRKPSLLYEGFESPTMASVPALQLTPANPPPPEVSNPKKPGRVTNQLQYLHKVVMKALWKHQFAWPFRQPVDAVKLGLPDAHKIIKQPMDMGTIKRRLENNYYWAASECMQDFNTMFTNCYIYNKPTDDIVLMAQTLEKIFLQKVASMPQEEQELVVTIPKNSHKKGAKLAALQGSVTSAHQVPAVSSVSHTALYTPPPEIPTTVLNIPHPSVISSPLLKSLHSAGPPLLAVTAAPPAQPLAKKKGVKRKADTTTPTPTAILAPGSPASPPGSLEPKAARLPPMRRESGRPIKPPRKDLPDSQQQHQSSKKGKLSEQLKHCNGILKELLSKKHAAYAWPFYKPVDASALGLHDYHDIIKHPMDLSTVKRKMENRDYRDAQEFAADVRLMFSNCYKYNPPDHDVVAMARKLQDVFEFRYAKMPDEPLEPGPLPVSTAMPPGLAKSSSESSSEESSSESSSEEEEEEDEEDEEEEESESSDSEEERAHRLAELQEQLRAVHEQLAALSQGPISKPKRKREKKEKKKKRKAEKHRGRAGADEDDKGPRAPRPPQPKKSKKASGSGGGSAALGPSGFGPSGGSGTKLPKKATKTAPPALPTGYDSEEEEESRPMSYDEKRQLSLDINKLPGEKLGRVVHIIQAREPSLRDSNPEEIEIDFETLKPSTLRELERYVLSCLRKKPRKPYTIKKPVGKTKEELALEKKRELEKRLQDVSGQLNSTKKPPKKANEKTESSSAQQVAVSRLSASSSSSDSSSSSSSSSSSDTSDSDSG
Assay: Displacement of Alexa Fluor 647 labelled ligand from His6-tagged BRD2 BD2 (1 to 473 residues)/BD1 Y113A mutant (unknown origin) after 30 mins by TR-FRET assay
Outcome measure: IC50 (µM)
Kindly provide the numeric value in µM only, without the unit symbol.

(Q) Hi! What's the reported IC50 for CC1(C2CC2)NC(=O)N(CC(=O)Nc2ccc(Br)c(S(=O)(=O)N3CCCCC3)c2)C1=O (racemic) on Bromodomain-containing protein 2 (Homo sapiens, UniProt P25440, Y113A)?
(A) 20

Numbers sourced from ChEMBL document CHEMBL4311956.
